TARGET: High affinity choline transporter 1 (Homo sapiens, UniProt Q9GZV3)
Sequence (Q9GZV3 whole entry): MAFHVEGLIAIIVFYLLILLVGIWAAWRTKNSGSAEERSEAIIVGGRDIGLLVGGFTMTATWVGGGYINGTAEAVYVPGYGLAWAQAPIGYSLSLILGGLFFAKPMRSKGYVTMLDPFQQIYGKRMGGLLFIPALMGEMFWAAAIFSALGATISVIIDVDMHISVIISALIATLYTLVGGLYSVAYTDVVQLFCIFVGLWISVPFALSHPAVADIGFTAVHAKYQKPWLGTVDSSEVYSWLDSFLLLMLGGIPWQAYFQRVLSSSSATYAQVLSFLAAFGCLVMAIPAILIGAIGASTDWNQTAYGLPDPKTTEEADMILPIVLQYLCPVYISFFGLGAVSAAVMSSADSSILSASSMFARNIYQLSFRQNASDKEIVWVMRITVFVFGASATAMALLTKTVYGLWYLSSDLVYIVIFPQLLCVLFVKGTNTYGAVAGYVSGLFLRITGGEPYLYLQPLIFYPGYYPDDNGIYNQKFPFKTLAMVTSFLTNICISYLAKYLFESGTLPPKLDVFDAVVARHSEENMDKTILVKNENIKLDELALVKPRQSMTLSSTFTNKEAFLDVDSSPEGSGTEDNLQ
ASSAY NOTES: human choline transporter blockers, potency – cell-based, 5-point CRC, membrane potential dye, dose response (AID 504840)
Type: functional
Calls of active or inactive are those of the source.
OBSERVED PROPERTY: IC50

// solved cases for IC50 follow
MOLECULE	IC50
O=C(COC(=O)CCCSc1nc2ccccc2[nH]1)NC(=O)NC1CCCC1	7.24 µM (active)
CN1/C(=C/C(=O)c2nc(S(C)(=O)=O)ncc2Cl)C(C)(C)c2ccccc21	4.81 µM (active)
O=C(NC1CCCCC1)C(c1ccc2ncccc2c1)N(Cc1ccc2c(c1)OCO2)C(=O)c1cccs1 (stereo unspecified)	16.5 µM (active)
N#C/C(=N\Nc1cccc([N+](=O)[O-])c1)C(=O)c1ccc(Br)cc1	9.02 µM (active)
Cc1ccc(C(=O)N/C(=C/c2ccco2)C(=O)Nc2cccc(C)c2)cc1	13.7 µM (active)

Would you kindly look at the next entry?
Task item: Specify measured IC50 for `Cc1ccc[n+](CC(=O)c2ccc(Cl)cc2)c1` .
Reply: 1.82 µM (active)

---

TARGET: Caspase-3 (Homo sapiens);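 also: Dose-response selectivity test against caspase-3 for candidate inhibitors of sentrin-specific proteases (SENPs)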
Assay type: functional
The source made the active and inactive calls.
OBSERVED PROPERTY: IC50

Task item: Specify measured IC50 for `CCOC(=O)/C(=N\Nc1ncnc2ccccc12)c1ccc(C)cc1` .
Reply: 32.9 µM (active)

Task item: Specify measured IC50 for `COc1ccc(C(=O)Nc2cccc(C(=O)O)c2)cc1S(=O)(=O)N1CCCC1` .
Reply: 46.9 µM (active)

---

Below, each entry is listed alongside its reported AC50.
ASSAY NOTES: blockers of bursicon-stimulated LGR2 cAMP reporter – cell-based, HEK293, CRE-luciferase reporter, cherry pick, set 2, dose response (AID 743343);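 also: transfected cells were stimulated with diluted bursicon conditioned medium after compound addition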
Format: functional
Activity calls are given as the source filed them.

// solved cases for AC50 follow
STRUCTURE	AC50
COc1cc(NC(=O)c2cccc3c(-c4cccnc4)coc23)cc(OC)c1OC	11.2 µM (active)
C[C@H](CO)N1C[C@H](C)[C@H](CN(C)S(=O)(=O)c2ccc(C(F)(F)F)cc2)OCc2ccccc2-c2c(n(C)c3ccccc23)C1=O	27.3 µM (active)
COc1ccc(-c2ccc(NC(=O)c3ccco3)cc2)nn1	3.8 µM (active)

Would you kindly look at the next entry?
Task item: Specify measured AC50 for `CC(=O)c1ccc(Sc2nnnn2-c2ccccc2)c([N+](=O)[O-])c1` .
Reply: 10.8 µM (active)

---

Below, each entry is listed alongside its reported IC50.
TARGET: Sentrin-specific protease 8 (Homo sapiens, UniProt Q96LD8);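 also: luminescence read-out of SENP8 inhibition, dose-response confirmation following an ultra-high-throughput screen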
Sequence (Q96LD8 whole entry): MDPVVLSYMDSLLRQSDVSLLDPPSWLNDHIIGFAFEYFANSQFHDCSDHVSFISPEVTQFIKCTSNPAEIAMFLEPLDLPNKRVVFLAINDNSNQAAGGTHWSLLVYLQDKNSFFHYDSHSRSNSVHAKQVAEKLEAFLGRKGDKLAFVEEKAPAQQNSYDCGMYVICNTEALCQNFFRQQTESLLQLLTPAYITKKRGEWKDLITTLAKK
Type: functional
Calls of active or inactive are those of the source.

// solved cases for IC50 follow
COMPOUND	IC50
CCCC1CCC(c2ccc(OCC)cc2)=CC1=O (configuration not stated)	40.2 µM (active)
O=C(Nc1ccc2c(c1)CCC2)c1cccc(S(=O)(=O)Nc2ccccc2Cl)c1	92.9 µM (active)
N#Cc1c(NC(=O)CSc2nc[nH]n2)sc2c1CCCCC2	4.66 µM (active)
O=[N+]([O-])c1ccc(CSc2nc3ccccc3o2)cc1	16.2 µM (active)
CCOC(=O)/C(=N\Nc1ncnc2ccccc12)c1ccc(C)cc1	13.4 µM (active)
Cc1ccc(C(=O)Nc2cccc3cccnc23)cc1C	18.8 µM (active)

Would you kindly look at the next entry?
Task item: Specify measured IC50 for `COc1ccc(C(=O)Nc2cccc(C(=O)O)c2)cc1S(=O)(=O)N1CCCC1` .
Reply: 26.6 µM (active)
